System: human ovarian cancer (SKOV3) cells
Assay: MTT tumor cell growth inhibition, human ovarian cancer (SKOV3)
Type: cell-based
Conditions: Homo sapiens, SK-OV-3; SKOV3, 48 h culture, MTT method; read-out: IC50 value of target compound against cancer cell proliferation, SKOV3
pIC50: −log10 of the molar value.
List of pIC50 values.
recorded.metric: pIC50

compound="COc1cc(CN(C)CC(O)COc2c(Br)cc(Br)cc2Br)ccc1OCCN1CCC(C)CC1 (centres unmarked)" target_of_assay="human ovarian cancer (SKOV3) cells" recorded_metric=pIC50 recorded_measurement=5.99
compound="COc1cc(CN(C)CC(O)COc2cc(Cl)cc(Br)c2)ccc1OCCN1CCC(C)CC1 (centres unmarked)" target_of_assay="human ovarian cancer (SKOV3) cells" recorded_metric=pIC50 recorded_measurement=5.51
compound="COc1cc(CN(C)CC(O)COc2cccc(Cl)c2)ccc1OCCN1CCC(C)CC1 (centres unmarked)" target_of_assay="human ovarian cancer (SKOV3) cells" recorded_metric=pIC50 recorded_measurement=5.86
compound="COc1cc(CN(C)CC(O)COc2ccccc2Br)ccc1OCCN1CCC(C)CC1 (centres unmarked)" target_of_assay="human ovarian cancer (SKOV3) cells" recorded_metric=pIC50 recorded_measurement=5.52
compound="CCCc1ccc(OCC(O)CN(C)Cc2ccc(OCCN3CCC(C)CC3)c(OC)c2)c(OC)c1 (centres unmarked)" target_of_assay="human ovarian cancer (SKOV3) cells" recorded_metric=pIC50 recorded_measurement=4.67
compound="CCN(CC)CCOc1ccc(CN(C)CC(O)COc2ccc(Cl)c(Cl)c2)cc1OC (centres unmarked)" target_of_assay="human ovarian cancer (SKOV3) cells" recorded_metric=pIC50 recorded_measurement=4.75
compound="COc1cc(CN(C)CC(O)COc2ccc(Br)cc2)ccc1OCCn1ccnc1 (centres unmarked)" target_of_assay="human ovarian cancer (SKOV3) cells" recorded_metric=pIC50 recorded_measurement=4.40
compound="COc1cc(CN(C)CC(O)COc2c(Cl)cccc2Cl)ccc1OCCN1CCC(C)CC1 (centres unmarked)" target_of_assay="human ovarian cancer (SKOV3) cells" recorded_metric=pIC50 recorded_measurement=5.20

###

Test system: human colon cancer (LOVO) cells
Experiment: MTT tumor cell growth inhibition, human colon cancer (LOVO)
Type: cell-based
Conditions: Homo sapiens, 48 h culture, MTT method, read-out: IC50 value of target compound against cancer cell proliferation, LOVO
Rule: IC50 below 4 µM gives Criterion met. Equal to or above 4 µM gives Criterion not met.

molecule="COc1cc(CN(C)CC(O)COc2ccc(Cl)c(Cl)c2)ccc1OCCN1CCCC1 (centres unmarked)" answer_label="Criterion not met"
molecule="CCN(CC)CCOc1ccc(CN(C)CC(O)COc2ccccc2C(C)C)cc1OC (centres unmarked)" answer_label="Criterion not met"
molecule="COc1cc(CN(C)CC(O)COc2cc(C(F)(F)F)ccc2Br)ccc1OCCN1CCCC1 (centres unmarked)" answer_label="Criterion met"
molecule="COc1cc(CN(C)CC(O)COc2ccc(NC(C)=O)cc2)ccc1OCCN1CCC(C)CC1 (centres unmarked)" answer_label="Criterion not met"
molecule="COc1cc(CN(C)CC(O)COc2ccccc2I)ccc1OCCN1CCC(C)CC1 (centres unmarked)" answer_label="Criterion met"
molecule="CCN(CC)CCOc1ccc(CN(C)CC(O)COc2ccc(Br)c(C(F)(F)F)c2)cc1OC (centres unmarked)" answer_label="Criterion not met"
molecule="COc1cc(CN(C)CC(O)COc2cc(C(F)(F)F)ccc2C(F)(F)F)ccc1OCCN1CCC(C)CC1 (centres unmarked)" answer_label="Criterion met"
molecule="COc1cc(CN(C)CC(O)COc2ccccc2C(F)(F)F)ccc1OCCN1CCC(C)CC1 (centres unmarked)" answer_label="Criterion met"

###

Test system: human colon cancer (LOVO) cells
Assay: MTT tumor cell growth inhibition, human colon cancer (LOVO)
Assay type: cell-based
Details: Homo sapiens, 48 h culture, MTT method, read-out: IC50 value of target compound against cancer cell proliferation, LOVO
recorded.metric: IC50 (µM)

compound="CCN(CC)CCOc1ccc(CN(C)CC(O)COc2ccc(F)c(Br)c2)cc1OC (centres unmarked) [CHJ04092]" target_of_assay="human colon cancer (LOVO) cells" readout_units=µM recorded_measurement=47.9
compound="COc1cc(CN(C)CC(O)COc2cc(C(F)(F)F)ccc2Br)ccc1OCCN1CCC(C)CC1 (centres unmarked) [CHJ04011]" target_of_assay="human colon cancer (LOVO) cells" readout_units=µM recorded_measurement=1.01
compound="CCN(CC)CCOc1ccc(CN(C)CC(O)COc2cc(C(F)(F)F)ccc2Br)cc1OC (centres unmarked) [CHJ04090]" target_of_assay="human colon cancer (LOVO) cells" readout_units=µM recorded_measurement=34
compound="COc1cc(CN(C)CC(O)COc2cccc(NC(C)=O)c2)ccc1OCCN1CCC(C)CC1 (centres unmarked) [CHJ04058]" target_of_assay="human colon cancer (LOVO) cells" readout_units=µM recorded_measurement=54
compound="COc1cc(CN(C)CC(O)COc2ccc(Cl)cc2)ccc1OCCN1CCC(C)CC1 (centres unmarked) [CHJ04083]" target_of_assay="human colon cancer (LOVO) cells" readout_units=µM recorded_measurement=1.23
compound="CCCc1ccc(OCC(O)CN(C)Cc2ccc(OCCN3CCC(C)CC3)c(OC)c2)c(OC)c1 (centres unmarked) [CHJ03011]" target_of_assay="human colon cancer (LOVO) cells" readout_units=µM recorded_measurement=15.2
compound="COc1cc(CN(C)CC(O)COc2c(Br)cc(Br)cc2Br)ccc1OCCN1CCC(C)CC1 (centres unmarked) [CHJ04022]" target_of_assay="human colon cancer (LOVO) cells" readout_units=µM recorded_measurement=0.69
compound="COc1cc(CN(C)CC(O)COc2ccc(Cl)cc2Cl)ccc1OCCN1CCC(C)CC1 (centres unmarked) [CHJ04059]" target_of_assay="human colon cancer (LOVO) cells" readout_units=µM recorded_measurement=3.92
compound="COc1cc(CN(C)CC(O)COc2cccc(C(C)C)c2)ccc1OCCN1CCC(C)CC1 (centres unmarked) [CHJ03015]" target_of_assay="human colon cancer (LOVO) cells" readout_units=µM recorded_measurement=0.55
compound="CCN(CC)CCOc1ccc(CN(C)CC(O)COc2ccc(Cl)c(Cl)c2)cc1OC (centres unmarked) [CHJ04091]" target_of_assay="human colon cancer (LOVO) cells" readout_units=µM recorded_measurement=10.6
compound="COc1ccc(OCC(O)CN(C)Cc2ccc(OCCN3CCC(C)CC3)c(OC)c2)cc1 (centres unmarked) [CHJ04084]" target_of_assay="human colon cancer (LOVO) cells" readout_units=µM recorded_measurement=7.54
compound="COc1cc(CN(C)CC(O)COc2cc(Cl)cc(Br)c2)ccc1OCCN1CCC(C)CC1 (centres unmarked) [CHJ04034]" target_of_assay="human colon cancer (LOVO) cells" readout_units=µM recorded_measurement=1.16
compound="COc1cc(CN(C)CC(O)COc2ccc(Br)c(C(F)(F)F)c2)ccc1OCCN1CCC(C)CC1 (centres unmarked) [CHJ02049]" target_of_assay="human colon cancer (LOVO) cells" readout_units=µM recorded_measurement=1.25
compound="COc1cccc(OCC(O)CN(C)Cc2ccc(OCCN3CCC(C)CC3)c(OC)c2)c1 (centres unmarked) [CHJ03017]" target_of_assay="human colon cancer (LOVO) cells" readout_units=µM recorded_measurement=2.44
compound="COc1cc(CN(C)CC(O)COc2ccc(Br)cc2OC)ccc1OCCN1CCC(C)CC1 (centres unmarked) [CHJ03005]" target_of_assay="human colon cancer (LOVO) cells" readout_units=µM recorded_measurement=6.66
compound="COc1cc(CN(C)CC(O)COc2ccc(Br)c(C(F)(F)F)c2)ccc1OCCn1ccnc1 (centres unmarked) [CHJ04097]" target_of_assay="human colon cancer (LOVO) cells" readout_units=µM recorded_measurement=32.1
compound="COc1cc(CN(C)CC(O)COc2ccc(C)c(Br)c2)ccc1OCCN1CCCC1 (centres unmarked) [CHJ04064]" target_of_assay="human colon cancer (LOVO) cells" readout_units=µM recorded_measurement=3.55

###

Tested on: human colon cancer (LOVO) cells
Assay: MTT tumor cell growth inhibition, human colon cancer (LOVO)
Type: cell-based
Details: Homo sapiens, 48 h culture, MTT method, read-out: IC50 value of target compound against cancer cell proliferation, LOVO
Rule: IC50 below 3 µM gives 1. Equal to or above 3 µM gives -1.

compound="COc1cc(CN(C)CC(O)COc2c(Cl)cc(Br)cc2Cl)ccc1OCCN1CCC(C)CC1 (centres unmarked)" answer_label=1
compound="COc1cc(CN(C)CC(O)COc2cc(Cl)cc(Cl)c2)ccc1OCCN1CCC(C)CC1 (centres unmarked)" answer_label=1
compound="COc1cc(CN(C)CC(O)COc2ccc(Cl)c(Cl)c2)ccc1OCCN1CCC(C)CC1 (centres unmarked)" answer_label=1
compound="COc1cc(CN(C)CC(O)COc2ccc(C)c(Br)c2)ccc1OCCN1CCC(C)CC1 (centres unmarked)" answer_label=1
compound="CCOc1ccccc1OCC(O)CN(C)Cc1ccc(OCCN2CCC(C)CC2)c(OC)c1 (centres unmarked)" answer_label=-1
compound="COc1cc(CN(C)CC(O)COc2cccc(C(F)(F)F)c2)ccc1OCCN1CCC(C)CC1 (centres unmarked)" answer_label=1
compound="CCN(CC)CCOc1ccc(CN(C)CC(O)COc2c(Cl)cc(Br)cc2Cl)cc1OC (centres unmarked)" answer_label=-1
compound="COc1cc(CN(C)CC(O)COc2cccc(Cl)c2)ccc1OCCN1CCC(C)CC1 (centres unmarked)" answer_label=-1
compound="COc1cc(CN(C)CC(O)COc2cc(C(F)(F)F)ccc2Br)ccc1OCCn1ccnc1 (centres unmarked)" answer_label=-1
compound="COc1cc(CN(C)CC(O)COc2cccc(Br)c2)ccc1OCCN1CCC(C)CC1 (centres unmarked)" answer_label=1
compound="COc1cc(CN(C)CC(O)COc2ccc(F)c(Br)c2)ccc1OCCN1CCC(C)CC1 (centres unmarked)" answer_label=-1
compound="COc1cc(CN(C)CC(O)COc2ccc(Cl)c(Br)c2)ccc1OCCN1CCC(C)CC1 (centres unmarked)" answer_label=1
compound="COc1cc(CN(C)CC(O)COc2ccc(Br)cc2)ccc1OCCN1CCC(C)CC1 (centres unmarked)" answer_label=1
compound="COc1cc(CN(C)CC(O)COc2cc(Br)ccc2F)ccc1OCCN1CCC(C)CC1 (centres unmarked)" answer_label=1
compound="COc1cc(CN(C)CC(O)COc2c(Br)cc(Br)cc2Br)ccc1OCCN1CCCC1 (centres unmarked)" answer_label=1
compound="COc1cc(CN(C)CC(O)COc2ccc(C)c(Br)c2)ccc1OCCn1ccnc1 (centres unmarked)" answer_label=-1
compound="COc1cc(CN(C)CC(O)COc2ccccc2Cl)ccc1OCCN1CCC(C)CC1 (centres unmarked)" answer_label=1
compound="COc1cc(CN(C)CC(O)COc2cc(Cl)cc(Cl)c2)ccc1OCCN1CCCC1 (centres unmarked)" answer_label=1
compound="COc1cc(CN(C)CC(O)COc2c(Cl)cccc2Cl)ccc1OCCN1CCC(C)CC1 (centres unmarked)" answer_label=1
compound="COc1cc(CN(C)CC(O)COc2ccccc2Br)ccc1OCCN1CCC(C)CC1 (centres unmarked)" answer_label=1
compound="COc1cc(CN(C)CC(O)COc2ccccc2C(C)C)ccc1OCCN1CCC(C)CC1 (centres unmarked)" answer_label=1
compound="COc1cc(CN(C)CC(O)COc2ccc(Br)cc2)ccc1OCCn1ccnc1 (centres unmarked)" answer_label=-1
